- Study System: T1, human TROP2-his protein (human, UniProt P09758 27-274)
- T1 construct: Biotin-labelled in the ELISAs, unlabelled analyte in Biacore; also called biotin-labeled human TROP2-his protein; biotin human Trop2-his
- T1 sequence: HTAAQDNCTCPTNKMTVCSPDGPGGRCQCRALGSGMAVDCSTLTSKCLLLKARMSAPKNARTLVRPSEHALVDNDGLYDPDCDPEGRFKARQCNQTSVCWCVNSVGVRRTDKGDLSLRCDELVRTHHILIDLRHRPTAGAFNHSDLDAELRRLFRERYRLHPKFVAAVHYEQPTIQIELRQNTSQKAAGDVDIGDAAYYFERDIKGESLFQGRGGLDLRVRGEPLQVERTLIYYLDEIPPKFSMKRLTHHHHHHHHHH
- Assay Procedure: SPR Biacore T200, supernatant antibody captured on anti-human IgG CM5 chip, 40 nM human TROP2-his
Metric Name: kon (M⁻¹ s⁻¹)
The figure you give is taken to be in M⁻¹ s⁻¹; do not add the unit.

Returns the measured kon for the input binder. Input: huA1E4F7D4-V14 (antibody, human IgG1, kappa, V domains shown, Positions of the X residues are given in the claims; Tested as cell supernatant) VH: QVQLVQSGAEVKKPGASVKVSCKASGYSFTTHWIHWVRQAPGQGLEWIGTIFPSNAYAVYNQKFRDRVTMTADRSISTAYIELSRLRSDDTAVYYCARASYFDYWGQGTTVTVSS VL: EIVLTQSPATLSLSPGERATLSCRASQNIGTSIHWFQQKPGGAPRLLIKYASESISGIPSRFSGSGSGTDFTLTISSLEPEDFAVYYCQHSHSWPFTFGQGTKLEIKR
834000

Returns the measured kon for the input binder. Input: huA1E4F7D4-V4 (antibody, human IgG1, kappa, V domains shown, Positions of the X residues are given in the claims; Tested as cell supernatant) VH: QVQLVQSGAEVKKPGASVKVSCKASGYSFTTHWIHWVRQAPGQGLEWIGTIFPSNAYAVYNQKFRDRVTMTADRSISTAYIELSRLRSDDTAVYYCARASYFDYWGQGTTVTVSS VL: EIVLTQSPATLSLSPGERATLSCRASQNIGTSIHWFQQKPGGSPRLLIKYASESISGIPSRFSGSGSGTDFTLTISSLEPEDFAVYYCQHSHSWPFTFGQGTKLEIKR
883000

Returns the measured kon for the input binder. Input: huA1E4F7D4-V9 (antibody, human IgG1, kappa, V domains shown, Positions of the X residues are given in the claims; Tested as cell supernatant) VH: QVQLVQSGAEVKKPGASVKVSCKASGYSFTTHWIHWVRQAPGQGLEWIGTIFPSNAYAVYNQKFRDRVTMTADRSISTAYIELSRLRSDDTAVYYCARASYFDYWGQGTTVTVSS VL: EIVLTQSPATLSLSPGERATLSCRASQNIGTSIHWFQQKPGQSPRLLIKYASESISGIPSRFSGSGSGTDFTLTISSLEPEDFAVYYCQHSHSWPFTFGQGTKLEIKR
865000

Returns the measured kon for the input binder. Input: huA1E4F7D4-V3 (antibody, human IgG1, kappa, V domains shown, Positions of the X residues are given in the claims; Tested as cell supernatant) VH: QVQLVQSGAEVKKPGASVKVSCKASGYTFTTHWIHWVRQAPGQGLEWIGTIFPSNAYAVYNQKFRDRATMTADRSISTAYIELSRLRSDDTAVYYCARASYFDYWGQGTTVTVSS VL: EIVLTQSPATLSLSPGERATLSCRASQNIGTSIHWFQQKPGGSPRLLIKYASESISGIPSRFSGSGSGTDFTLTISSLEPEDFAVYYCQHSHSWPFTFGQGTKLEIKR
836000

Returns the measured kon for the input binder. Input: huA1E4F7D4-V6 (antibody, human IgG1, kappa, V domains shown, Positions of the X residues are given in the claims; Tested as cell supernatant) VH: QVQLVQSGAEVKKPGASVKVSCKASGYSFTTHWIHWVRQAPGQGLEWIGTIFPSNAYAVYNQKFRDRATMTADTSISTAYIELSRLRSDDTAVYYCARASYFDYWGQGTTVTVSS VL: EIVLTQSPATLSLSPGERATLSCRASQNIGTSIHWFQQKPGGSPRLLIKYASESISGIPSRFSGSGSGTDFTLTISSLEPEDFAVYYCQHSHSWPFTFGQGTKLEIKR
1.08e+06

Returns the measured kon for the input binder. Input: huA1E4F7D4-V18 (antibody, human IgG1, kappa, V domains shown, Positions of the X residues are given in the claims; Tested as cell supernatant) VH: QVQLVQSGAEVKKPGASVKVSCKASGYTFTTHWIHWVRQAPGQGLEWIGTIFPSNAYAVYNQKFRDRATMTADRSISTAYIELSRLRSDDTAVYYCARASYFDYWGQGTTVTVSS VL: EIVLTQSPATLSLSPGERATLSCRASQNIGTSIHWFQQKPGGSPRLLIYYASESISGIPSRFSGSGSGTDFTLTISSLEPEDFAVYYCQHSHSWPFTFGQGTKLEIKR
1.22e+06

Returns the measured kon for the input binder. Input: huA1E4F7D4-V10 (antibody, human IgG1, kappa, V domains shown, Positions of the X residues are given in the claims; Tested as cell supernatant) VH: QVQLVQSGAEVKKPGASVKVSCKASGYSFTTHWIHWVRQAPGQGLEWIGTIFPSNAYAVYNQKFRDRATMTRDRSISTAYIELSRLRSDDTAVYYCARASYFDYWGQGTTVTVSS VL: EIVLTQSPATLSLSPGERATLSCRASQNIGTSIHWFQQKPGQSPRLLIKYASESISGIPSRFSGSGSGTDFTLTISSLEPEDFAVYYCQHSHSWPFTFGQGTKLEIKR
656000

Returns the measured kon for the input binder. Input: huA1E4F7D4-V11 (antibody, human IgG1, kappa, V domains shown, Positions of the X residues are given in the claims; Tested as cell supernatant) VH: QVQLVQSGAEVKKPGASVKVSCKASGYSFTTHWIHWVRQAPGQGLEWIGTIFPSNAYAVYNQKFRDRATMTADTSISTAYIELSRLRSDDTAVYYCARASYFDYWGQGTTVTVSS VL: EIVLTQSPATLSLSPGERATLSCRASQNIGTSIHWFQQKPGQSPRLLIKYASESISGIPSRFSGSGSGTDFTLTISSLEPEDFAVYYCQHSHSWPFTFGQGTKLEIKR
1.08e+06

Returns the measured kon for the input binder. Input: huA1E4F7D4-V5 (antibody, human IgG1, kappa, V domains shown, Positions of the X residues are given in the claims; Tested as cell supernatant) VH: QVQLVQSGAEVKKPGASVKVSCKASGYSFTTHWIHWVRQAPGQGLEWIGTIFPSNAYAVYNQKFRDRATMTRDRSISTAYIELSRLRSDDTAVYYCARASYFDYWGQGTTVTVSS VL: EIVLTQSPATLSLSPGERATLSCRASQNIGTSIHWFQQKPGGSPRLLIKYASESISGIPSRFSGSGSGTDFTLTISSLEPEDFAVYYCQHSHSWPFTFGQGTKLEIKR
577000

Returns the measured kon for the input binder. Input: huA1E4F7D4-V12 (antibody, human IgG1, kappa, V domains shown, Positions of the X residues are given in the claims; Tested as cell supernatant) VH: QVQLVQSGAEVKKPGASVKVSCKASGYSFTTHWIHWVRQAPGQGLEWIGTIFPSNAYAVYNQKFRDRATMTADRSISTAYIELSRLRSDDTAVYYCARASYFDYWGQGTTVTVSS VL: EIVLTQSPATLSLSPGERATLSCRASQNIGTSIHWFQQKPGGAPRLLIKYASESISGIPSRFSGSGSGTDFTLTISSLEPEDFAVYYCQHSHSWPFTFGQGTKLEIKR
909000

Measured values drawn from patent US20240207432A1 for this set.
